Target: NAD kinase 1 (Listeria monocytogenes serovar 1/2a (strain ATCC BAA-679 / EGD-e), UniProt Q8Y8D7)
Sequence (Q8Y8D7 whole entry): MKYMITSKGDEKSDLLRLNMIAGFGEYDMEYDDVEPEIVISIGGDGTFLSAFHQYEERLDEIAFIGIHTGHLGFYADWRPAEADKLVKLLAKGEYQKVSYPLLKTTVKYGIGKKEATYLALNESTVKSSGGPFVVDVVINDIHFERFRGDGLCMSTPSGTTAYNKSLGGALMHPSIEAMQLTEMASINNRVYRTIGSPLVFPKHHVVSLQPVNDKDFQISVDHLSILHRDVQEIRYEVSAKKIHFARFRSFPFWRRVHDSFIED
Test: Inhibition of Listeria monocytogenes NAD kinase assessed as suppression of reduced NADP formation by yeast glucose-6-phosphate dehydrogenase coupled assay
MEASURED_PROPERTY: pKi
Give bare numbers, as −log10 of the molar value.

Q: Endpoint output: pKi of "[N-]=[N+]=NC[C@H]1O[C@@H](n2c(SCC(=O)NC[C@H]3O[C@@H](n4cnc5c(N)ncnc54)[C@H](O)[C@@H]3O)nc3c(N)ncnc32)[C@H](O)[C@@H]1O" . Value?
Ans: 4.60

====

Task for the reader: assign each of the following compounds its reported Ki.
Biological target: Signal transducer and activator of transcription 5B (Homo sapiens)
Test: Binding affinity to MBP-tagged recombinant STAT5b-SH2 domain (unknown origin) using carboxyfluoresceine-labeled phosphotyrosine octapeptide incubated for 12 hrs by fluorescence polarization assay

Sample answers from the record:
STRUCTURE_NOTATION: O=C(O)c1nonc1NCn1nnnc1-c1ccc(F)cc1
Ki: 0.0006 mM
--
STRUCTURE_NOTATION: O=C(O)c1nonc1NCn1nnnc1-c1cccc(C(F)(F)F)c1
Ki: > 5 mM
--
STRUCTURE_NOTATION: O=C(O)c1nonc1NCn1cncn1
Ki: > 5 mM
--
STRUCTURE_NOTATION: Nc1nonc1C(=O)O
Ki: 0.42 mM

Required: Ki, one value per compound below.
1. O=C(O)c1nonc1NCn1ccnn1
2. O=C(O)c1nonc1NCn1nnnc1-c1ccccc1
3. O=C(O)c1nonc1NCn1cccn1

Ans:
> 5 mM
> 5 mM
> 5 mM

====

Target: Coagulation factor X (Homo sapiens)
Sequence (P00742 41-179 limits assumed): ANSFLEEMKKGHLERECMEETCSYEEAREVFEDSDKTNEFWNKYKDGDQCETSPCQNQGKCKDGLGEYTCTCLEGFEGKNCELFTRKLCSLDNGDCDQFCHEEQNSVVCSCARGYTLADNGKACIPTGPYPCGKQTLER
Sequence (P00742 235-488 limits assumed): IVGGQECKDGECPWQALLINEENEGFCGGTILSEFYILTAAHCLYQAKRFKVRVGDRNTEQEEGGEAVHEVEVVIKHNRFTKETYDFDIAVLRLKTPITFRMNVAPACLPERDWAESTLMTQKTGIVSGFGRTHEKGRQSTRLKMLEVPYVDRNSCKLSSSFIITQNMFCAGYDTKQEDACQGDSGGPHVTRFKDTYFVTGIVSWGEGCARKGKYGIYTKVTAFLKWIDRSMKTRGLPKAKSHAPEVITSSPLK
MEASURED_PROPERTY: Ki (µM)
One number for each entry, in µM.

Q: Endpoint output: Ki of "N=C(N)c1ccc(CN)cc1" . Value?
Ans: 680

====

Task for the reader: assign each of the following molecules its reported pKi.
Target: Signal transducer and activator of transcription 5B (Homo sapiens, UniProt P51692)
Sequence (P51692 whole entry, the tested form may be a part): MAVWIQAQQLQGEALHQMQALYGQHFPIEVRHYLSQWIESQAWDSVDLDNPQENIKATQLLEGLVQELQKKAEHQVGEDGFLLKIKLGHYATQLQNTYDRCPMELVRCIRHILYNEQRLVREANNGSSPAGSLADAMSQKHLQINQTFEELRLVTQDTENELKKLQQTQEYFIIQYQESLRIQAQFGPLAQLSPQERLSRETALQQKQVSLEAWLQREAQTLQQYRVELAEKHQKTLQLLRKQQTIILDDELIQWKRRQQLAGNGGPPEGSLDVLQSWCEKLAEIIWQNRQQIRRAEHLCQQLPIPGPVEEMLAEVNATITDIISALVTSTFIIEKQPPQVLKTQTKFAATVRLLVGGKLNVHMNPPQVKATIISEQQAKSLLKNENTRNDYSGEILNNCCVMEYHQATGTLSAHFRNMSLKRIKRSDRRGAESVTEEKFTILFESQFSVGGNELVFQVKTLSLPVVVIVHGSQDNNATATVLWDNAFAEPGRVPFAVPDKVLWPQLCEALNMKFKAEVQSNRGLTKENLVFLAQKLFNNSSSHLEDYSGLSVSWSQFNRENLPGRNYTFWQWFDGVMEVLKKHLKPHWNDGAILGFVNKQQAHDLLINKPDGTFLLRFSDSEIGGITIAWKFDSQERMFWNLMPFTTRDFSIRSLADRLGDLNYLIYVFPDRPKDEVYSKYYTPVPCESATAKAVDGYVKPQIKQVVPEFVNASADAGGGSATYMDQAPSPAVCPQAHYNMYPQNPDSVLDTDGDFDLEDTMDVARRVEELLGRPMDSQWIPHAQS
Assay: Binding affinity to MBP-tagged recombinant STAT5b-SH2 domain (unknown origin) using carboxyfluoresceine-labeled phosphotyrosine octapeptide incubated for 12 hrs by fluorescence polarization assay
pKi: −log10 of the molar value.

Sample answers from the record:
STRUCTURE_NOTATION: COC(=O)c1nonc1NCn1nnnc1-c1cccc(OC(F)(F)F)c1
MEASURED_PROPERTY: pKi
VALUE_OBSERVED: < 2.30
--
STRUCTURE_NOTATION: O=C(O)c1nonc1NCn1nnnc1-c1cccc(F)c1
MEASURED_PROPERTY: pKi
VALUE_OBSERVED: < 2.30

Now look at this one.
Q: Endpoint output: pKi of "O=C(O)c1nonc1NCn1nnc2ccccc21" . Value?
Ans: < 2.30

====

Molecular target: Bifunctional ligase/repressor BirA (Staphylococcus aureus, UniProt A0A0E7NXW5)
Sequence (A0A0E7NXW5 whole entry): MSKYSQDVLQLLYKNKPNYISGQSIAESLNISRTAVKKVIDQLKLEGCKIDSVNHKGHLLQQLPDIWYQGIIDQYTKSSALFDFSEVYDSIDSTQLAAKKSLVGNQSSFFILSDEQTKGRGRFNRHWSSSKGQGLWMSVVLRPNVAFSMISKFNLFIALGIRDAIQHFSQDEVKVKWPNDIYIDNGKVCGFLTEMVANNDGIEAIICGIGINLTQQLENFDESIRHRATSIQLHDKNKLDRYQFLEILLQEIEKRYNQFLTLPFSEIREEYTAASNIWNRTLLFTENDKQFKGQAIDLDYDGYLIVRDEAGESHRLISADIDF
Assay: Binding affinity to Staphylococcus aureus biotin protein ligase
MEASURED_PROPERTY: pKi
Numbers only, as −log10 of the molar value.

Q: Endpoint output: pKi of "O=C1N[C@H]2[C@H](CS[C@H]2CCCCc2cn(CCCNc3ccc([N+](=O)[O-])c4nonc34)nn2)N1" . Value?
Ans: 5.85

====

Task for the reader: assign each of the following compounds its reported IC50.
Molecular target: Signal transducer and activator of transcription 5B (Homo sapiens)
Experiment: Binding affinity to MBP-tagged recombinant STAT5b-SH2 domain (unknown origin) using carboxyfluoresceine-labeled phosphotyrosine octapeptide incubated for 12 hrs by fluorescence polarization assay
Give bare numbers, in nM.

STRUCTURE_NOTATION: COC(=O)c1nonc1NCn1cnnn1
ASSAY_SYSTEM: Signal transducer and activator of transcription 5B (Homo sapiens)
UNIT_INFO: nM
IC50: 37000

STRUCTURE_NOTATION: O=C(O)c1nonc1NCn1nnnc1Cc1ccccc1
ASSAY_SYSTEM: Signal transducer and activator of transcription 5B (Homo sapiens)
UNIT_INFO: nM
IC50: 2900

Q: Endpoint output: IC50 of "O=C(O)c1nonc1NCn1cnnn1" . Value?
Ans: 1400

====

Experiment: Inhibition of Enterovirus A71 3c protease
MEASURED_PROPERTY: IC50 (µM)
Give bare numbers, in µM.

Required: IC50, one value per compound below.
1. CCOC(=O)/C=C/[C@H](C[C@@H]1CCCNC1=O)NC(=O)[C@H](Cc1ccccc1)NC(=O)C=O
2. Cc1cc(C(=O)N[C@@H](Cc2ccc(F)cc2)C(=O)N[C@H](C=O)C[C@@H]2CCCNC2=O)no1
3. CCOC(=O)CC[C@H](C[C@@H]1CCCNC1=O)NC(=O)[C@H](Cc1ccccc1)NC(=O)C(O)CC(=O)c1ccncc1 (some centres undefined)
4. O=C[C@H](C[C@@H]1CCCNC1=O)NC(=O)[C@H](Cc1ccccc1)NC(=O)C(O)CC(=O)c1ccncc1 (some centres undefined)

Ans:
[16.4, 0.32, 1.43, 0.15]
